Origin of the recorded values: ChEMBL document CHEMBL4673366

# protocolText: Stability of compound in human whole blood assessed as half life
# Type: ADME, tissue-based
half-life listing for selected compounds.

Below, each entry is followed by its recorded half-life result.
COC(=O)CCNC(=O)[C@@H]1OP(=O)(Oc2ccc(F)cc2)OCC1(C)C (mixture of isomers)	> 60 min
COC(=O)CCNC(=O)[C@@H]1O[P@](=O)(OCOC(=O)c2scnc2C)OCC1(C)C (relative stereo)	< 9.6 min
COC(=O)CCNC(=O)[C@@H]1O[P@](=O)(Oc2ccc(C(F)(F)F)cc2)OCC1(C)C	> 60 min
COC(=O)CCNC(=O)[C@@H]1O[P@](=O)(OCOC(=O)c2ocnc2C)OCC1(C)C	16.2 min
COC(=O)CCNC(=O)[C@@H]1O[P@](=O)(OCOC(=O)c2scnc2C(C)(C)C)OCC1(C)C (relative stereo)	26.4 min
CC(C)(C)C(=O)OCO[P@@]1(=O)OCC(C)(C)[C@H](C(=O)NCCC(=O)OC2CCN(Cc3ccccc3)C2)O1 (stereo partly specified)	11.4 min
COC(=O)CCNC(=O)[C@@H]1O[P@@](=O)(OCOC(=O)c2cc(C)nn2C)OCC1(C)C (relative stereo)	> 60 min
COC(=O)CCNC(=O)[C@@H]1O[P@](=O)(Oc2ccc(C#N)cc2)OCC1(C)C	27.6 min
CCc1cc(C(=O)OCO[P@@]2(=O)OCC(C)(C)[C@H](C(=O)NCCC(=O)OC)O2)n(C)n1	≥ 58.2 min
COC(=O)CCNC(=O)[C@@H]1O[P@](=O)(OCOC(=O)c2cc(C(C)(C)C)n[nH]2)OCC1(C)C (relative stereo)	< 9.6 min

Q: Form field: reported half-life of COC(=O)CCNC(=O)[C@@H]1O[P@@](=O)(OCOC(=O)c2scnc2C)OCC1(C)C
Ans: > 60 min
